Assay: pH profile of enzymes on 1 mM ATP
Assay type: biochemical
Details: 50 mM trisodium citrate/citric acid, 5 mM CaCl2, relative to the highest value
Relative activity on ATP, pH 3.5 reference

// Relative activity on ATP, pH 3.5 lookup, key: CRC25089: Acid phosphatase (Class A), accession WP_217352265.1, SEQ ID NO:22 (protein, listed as Paraburkholderia bonniea) AGSDGFLTAETAPSSLAILPPPPAENTVAFLNDKANYEIGRSLKNDARVALAASDANCKNINAIFSSAFGREISEEKTPKLYRLLLGVLQDSHDHAMKSAKNHYMRVRPFVMYGDKTCTPEEDNKMKNTGSYPSGHASFGWAAALVLSEINPERTTEILRRGYDFGQSRVVCGAHWQSDVDNGRLMGAAVVADLHNNDKFIKALEAAKAEFKENTPGN
1.0

// query Relative activity on ATP, pH 3.5 value for entry CRC25082: Acid phosphatase (Class A), accession WP_050460978.1, SEQ ID NO:19 (protein, listed as Herbaspirillum autotrophicum) KGAAGFLNGQTAPDSLAILPPPPAEDSVAFQADKAQYETGHVLRDPERVEQARQDADYRNFGHAFSAAFGMEISATHTPVLYQLLTEVLQDSHDYAMKAAKNHYKRVRPFVVYKDPTCTPGQDEKMALSGSYPSGHASFGWAAALVLAEINPARQTEILQRGYAFGKSRVICGAHWQSDVDNGQLMGAAVVAALHSNSQFAAALNAAKNEFAGLRAQDNKK
0.0

What does the record list as Relative activity on ATP, pH 3.5 for CRC25100: Acid phosphatase (Class A), internal database, SEQ ID NO:24 (protein, environmental sample) GENSGFLSPETSPNSLEILPPPPSEGSIAFLNDKANYDIGHTLKNEGRLAQAVSDANYKNLTDAFSKAFGETISEQNTPALYSLLQNVLQDSHDFAMRAAKDHYKRVRPFVIYKDHTCTPAEDTKMAKTGSYPSGHASFGWATALVLSEINPARETEILKRGYEFGQSRVICGAHWQSDVDSGRIMGAAVVASLHNNSDFISALAKAKEEFRKK ?
0.0
